- TARGET SYSTEM: Phosphatidylinositol 4,5-bisphosphate 3-kinase catalytic subunit delta isoform (Homo sapiens)
- Sequence (O00329 whole entry): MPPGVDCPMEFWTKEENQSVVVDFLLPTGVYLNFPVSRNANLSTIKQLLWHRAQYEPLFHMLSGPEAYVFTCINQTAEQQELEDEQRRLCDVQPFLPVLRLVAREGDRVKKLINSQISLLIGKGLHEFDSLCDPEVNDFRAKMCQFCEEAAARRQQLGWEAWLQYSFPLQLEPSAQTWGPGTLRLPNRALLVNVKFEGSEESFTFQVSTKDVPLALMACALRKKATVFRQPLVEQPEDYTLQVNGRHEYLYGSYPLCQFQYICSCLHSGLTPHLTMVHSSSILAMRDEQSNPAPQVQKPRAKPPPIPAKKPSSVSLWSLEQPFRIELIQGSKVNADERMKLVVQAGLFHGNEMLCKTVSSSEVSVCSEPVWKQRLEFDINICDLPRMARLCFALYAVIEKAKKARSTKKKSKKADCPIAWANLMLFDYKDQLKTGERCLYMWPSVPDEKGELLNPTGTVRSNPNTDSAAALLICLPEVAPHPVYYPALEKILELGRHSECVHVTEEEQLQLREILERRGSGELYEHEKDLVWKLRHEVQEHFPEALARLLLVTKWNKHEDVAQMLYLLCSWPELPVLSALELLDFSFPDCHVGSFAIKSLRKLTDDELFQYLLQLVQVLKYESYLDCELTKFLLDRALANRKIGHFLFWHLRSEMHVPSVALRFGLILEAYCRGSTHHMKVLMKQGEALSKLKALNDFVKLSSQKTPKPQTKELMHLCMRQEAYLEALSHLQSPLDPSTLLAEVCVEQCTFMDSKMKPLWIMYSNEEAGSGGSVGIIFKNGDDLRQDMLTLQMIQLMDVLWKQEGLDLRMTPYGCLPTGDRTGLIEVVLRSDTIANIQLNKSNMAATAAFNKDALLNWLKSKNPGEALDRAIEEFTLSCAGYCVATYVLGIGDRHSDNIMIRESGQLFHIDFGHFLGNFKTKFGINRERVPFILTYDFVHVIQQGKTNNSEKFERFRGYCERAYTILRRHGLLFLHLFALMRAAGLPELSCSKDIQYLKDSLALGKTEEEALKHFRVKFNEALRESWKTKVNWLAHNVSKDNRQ
- TEST METHOD NOTES: Inhibition of PI3K delta by continuous TR-FRET assay
pIC50: −log10 of the molar value.
ENDPOINT LABEL: pIC50

>>> df
                                   molecule  reported
0  Cc1c(Cl)cccc1Cn1c(=S)[nH]c(=O)c2sc(N3CCOCC3)nc21      7.30
1  Cc1c(Cl)cccc1Cn1cnc(=O)c2sc(N3CCOCC3)nc21      7.40

I. Cc1c(Cn2c(-c3ccccc3)nc(=O)c3sc(N4CCOCC4)nc32)cccc1C(F)(F)F
II. Cc1c(Cn2c(CN)nc(=O)c3sc(N4CCOCC4)nc32)cccc1C(F)(F)F
Exercise: Decide: I or II , by lowest recorded pIC50. Respond with the label that goes with your answer.
Key: I
(I: 6.30, II: 6.80)

A. O=c1ncn(Cc2cccc(Cl)c2)c2nc(N3CCOCC3)sc12
B. O=c1ncn(Cc2ccsc2Cl)c2nc(N3CCOCC3)sc12
C. Cc1c(Cn2c(C)nc(=O)c3sc(N4CCOCC4)nc32)cccc1C(F)(F)F
D. Cc1c(Cl)cccc1Cn1c(N)nc(=O)c2sc(N3CCOCC3)nc21
E. Cc1c(Cn2cnc(=O)c3sc(N4CCOCC4)nc32)cccc1C(F)(F)F
Exercise: Rank descending by pIC50. To answer, arrange all of the labels according to the requested order.
Key: D, C, E, A, B

I. CC(c1ccccc1)n1cnc(=O)c2sc(N3CCOCC3)nc21 (configuration not stated)
II. CSc1nc(=O)c2sc(N3CCOCC3)nc2n1Cc1cccc(Cl)c1C
Exercise: Could you tell me which of these two has the smaller pIC50 figure? First: I Second: II Answer by stating the label of the chosen item.
Key: I
